tested on: ALPK1-dependent NFκB reporter gene activation in HEK293 cells stably expressing an NF-kB reporter (G9 cells); assay: NFκB gene reporter alkaline phosphatase assay; type: cell-based; settings: Homo sapiens, HEK293; read-out: NFkB assay IC50
Outcome measure: IC50

Sample records with IC50:
>>> result("CC(C)(c1ccc(Br)cc1)c1csc(NC(=O)NCc2cnc(N3CCC(O)C3)nc2)n1 (centres unmarked)")
"1680 nM"
>>> result("C#C[C@](C)(c1ccc(Br)cc1)c1csc(NC(=O)NCCO)n1")
"550 nM"
>>> result("CN(C)C1CCN(c2ccc(CNC(=O)Nc3nc(C(C)(C)c4ccc(Br)cc4)cs3)cn2)C1 (centres unmarked)")
"6720 nM"
>>> result("COc1ccc(C(C)(C)c2csc(NC(=O)NCc3ccc(N4CCNCC4)cc3)n2)cc1")
"760 nM"
>>> result("CC(C)(c1ccc(Br)cc1)c1csc(NC(=O)NCc2ccnc(N3CCNCC3)c2)n1")
"1520 nM"

COc1ccc(C(C)(C)c2csc(NC(=O)NCCCC(=O)NC3CCN(C)CC3)n2)cc1 has a reported IC50 of 16900 nM

CC(C)(c1ccc(Br)cc1)c1csc(NC(=O)NCc2cnc(N3CCNCC3)cn2)n1 has a reported IC50 of 320 nM

COc1ccc(C(C)(C)c2csc(NC(=O)NCCc3ccncc3)n2)cc1 has a reported IC50 of 1050 nM

CC(C)(c1ccc(Br)cc1)c1csc(NC(=O)NCCS(C)(=O)=O)n1 has a reported IC50 of 10500 nM

COc1ccc(C(C)(C)c2csc(NC(=O)NC(C)c3cc(F)c(N4CCNCC4)cc3F)n2)cc1 (centres unmarked) has a reported IC50 of 700 nM

C#CC(C)(c1ccc(OC)cc1)c1csc(NC(=O)NCCO)n1 (centres unmarked) has a reported IC50 of 400 nM

CC(C)(c1ccc(Br)cc1)c1csc(NC(=O)NCc2ccc(OCCCN3CCNCC3)cc2)n1 has a reported IC50 of 2030 nM
